Conditions: in toluene, 295.65 K
observation type: solubility (mole fraction)

CS(=O)(=O)c1ccc(C=O)cc1 | 0.00128

---

Details: in n-propanol, 285.65 K
observation type: solubility (mole fraction)

CS(=O)(=O)c1ccc(C=O)cc1 | 0.000587

---

Settings: in isopropanol, 285.65 K
observation type: solubility (mole fraction)

CS(=O)(=O)c1ccc(C=O)cc1 | 0.000321

---

Conditions: in acetone, 310.65 K
observation type: solubility (mole fraction)

CS(=O)(=O)c1ccc(C=O)cc1 | 0.0206

---

Conditions: in n-butanol, 300.65 K
observation type: solubility (mole fraction)

CS(=O)(=O)c1ccc(C=O)cc1 | 0.00128

---

Details: in acetonitrile, 318.15 K
observation type: solubility (mole fraction)

CS(=O)(=O)c1ccc(C=O)cc1 | 0.0252

---

Settings: in ethanol, 303.15 K
observation type: solubility (mole fraction)

CS(=O)(=O)c1ccc(C=O)cc1 | 0.00192

---

Conditions: in toluene, 305.65 K
observation type: solubility (mole fraction)

CS(=O)(=O)c1ccc(C=O)cc1 | 0.002

---

Settings: in acetic acid, 293.15 K
observation type: solubility (mole fraction)

CS(=O)(=O)c1ccc(C=O)cc1 | 0.00488

---

Details: in toluene, 285.65 K
observation type: solubility (mole fraction)

CS(=O)(=O)c1ccc(C=O)cc1 | 0.000825

---

Conditions: in acetonitrile, 310.65 K
observation type: solubility (mole fraction)

CS(=O)(=O)c1ccc(C=O)cc1 | 0.019

---

Conditions: in acetonitrile, 305.65 K
observation type: solubility (mole fraction)

CS(=O)(=O)c1ccc(C=O)cc1 | 0.0152

---

Conditions: in acetic acid, 283.15 K
observation type: solubility (mole fraction)

CS(=O)(=O)c1ccc(C=O)cc1 | 0.00336

---

Settings: in n-propanol, 313.15 K
observation type: solubility (mole fraction)

CS(=O)(=O)c1ccc(C=O)cc1 | 0.00194

---

Settings: in n-butanol, 298.15 K
observation type: solubility (mole fraction)

CS(=O)(=O)c1ccc(C=O)cc1 | 0.00114

---

Details: in acetonitrile, 293.15 K
observation type: solubility (mole fraction)

CS(=O)(=O)c1ccc(C=O)cc1 | 0.00903

---

Details: in acetonitrile, 285.65 K
observation type: solubility (mole fraction)

CS(=O)(=O)c1ccc(C=O)cc1 | 0.00661

---

Conditions: in isopropanol, 308.15 K
observation type: solubility (mole fraction)

CS(=O)(=O)c1ccc(C=O)cc1 | 0.000894

---

Details: in acetone, 303.15 K
observation type: solubility (mole fraction)

CS(=O)(=O)c1ccc(C=O)cc1 | 0.0161

---

Conditions: in n-butanol, 305.65 K
observation type: solubility (mole fraction)

CS(=O)(=O)c1ccc(C=O)cc1 | 0.00155

---

Conditions: in acetic acid, 300.65 K
observation type: solubility (mole fraction)

CS(=O)(=O)c1ccc(C=O)cc1 | 0.00662

---

Settings: in ethanol, 315.65 K
observation type: solubility (mole fraction)

CS(=O)(=O)c1ccc(C=O)cc1 | 0.00311

---

Details: in toluene, 313.15 K
observation type: solubility (mole fraction)

CS(=O)(=O)c1ccc(C=O)cc1 | 0.00276

---

Details: in acetone, 298.15 K
observation type: solubility (mole fraction)

CS(=O)(=O)c1ccc(C=O)cc1 | 0.0136

---

Details: in acetic acid, 315.65 K
observation type: solubility (mole fraction)

CS(=O)(=O)c1ccc(C=O)cc1 | 0.0118

---

Settings: in isopropanol, 305.65 K
observation type: solubility (mole fraction)

CS(=O)(=O)c1ccc(C=O)cc1 | 0.000796

---

Conditions: in n-propanol, 310.65 K
observation type: solubility (mole fraction)

CS(=O)(=O)c1ccc(C=O)cc1 | 0.00176

---

Conditions: in ethanol, 300.65 K
observation type: solubility (mole fraction)

CS(=O)(=O)c1ccc(C=O)cc1 | 0.00174

---

Conditions: in acetone, 308.15 K
observation type: solubility (mole fraction)

CS(=O)(=O)c1ccc(C=O)cc1 | 0.0189

---

Details: in acetone, 313.15 K
observation type: solubility (mole fraction)

CS(=O)(=O)c1ccc(C=O)cc1 | 0.0226

---

Conditions: in acetic acid, 290.65 K
observation type: solubility (mole fraction)

CS(=O)(=O)c1ccc(C=O)cc1 | 0.00445

---

Settings: in ethanol, 308.15 K
observation type: solubility (mole fraction)

CS(=O)(=O)c1ccc(C=O)cc1 | 0.00235

---

Settings: in acetone, 290.65 K
observation type: solubility (mole fraction)

CS(=O)(=O)c1ccc(C=O)cc1 | 0.0104

---

Details: in acetic acid, 303.15 K
observation type: solubility (mole fraction)

CS(=O)(=O)c1ccc(C=O)cc1 | 0.00727

---

Conditions: in isopropanol, 313.15 K
observation type: solubility (mole fraction)

CS(=O)(=O)c1ccc(C=O)cc1 | 0.00112

---

Settings: in ethanol, 288.15 K
observation type: solubility (mole fraction)

CS(=O)(=O)c1ccc(C=O)cc1 | 0.00103

---

Conditions: in acetonitrile, 308.15 K
observation type: solubility (mole fraction)

CS(=O)(=O)c1ccc(C=O)cc1 | 0.017

---

Conditions: in toluene, 293.15 K
observation type: solubility (mole fraction)

CS(=O)(=O)c1ccc(C=O)cc1 | 0.00115

---

Settings: in acetic acid, 313.15 K
observation type: solubility (mole fraction)

CS(=O)(=O)c1ccc(C=O)cc1 | 0.0108

---

Details: in n-propanol, 300.65 K
observation type: solubility (mole fraction)

CS(=O)(=O)c1ccc(C=O)cc1 | 0.00115

---

Settings: in acetonitrile, 288.15 K
observation type: solubility (mole fraction)

CS(=O)(=O)c1ccc(C=O)cc1 | 0.00734

---

Details: in toluene, 303.15 K
observation type: solubility (mole fraction)

CS(=O)(=O)c1ccc(C=O)cc1 | 0.0018

---

Settings: in acetone, 318.15 K
observation type: solubility (mole fraction)

CS(=O)(=O)c1ccc(C=O)cc1 | 0.0269

---

Details: in methanol, 300.65 K
observation type: solubility (mole fraction)

CS(=O)(=O)c1ccc(C=O)cc1 | 0.00392

---

Conditions: in n-butanol, 310.65 K
observation type: solubility (mole fraction)

CS(=O)(=O)c1ccc(C=O)cc1 | 0.00191

---

Settings: in n-butanol, 308.15 K
observation type: solubility (mole fraction)

CS(=O)(=O)c1ccc(C=O)cc1 | 0.00171

---

Conditions: in n-butanol, 288.15 K
observation type: solubility (mole fraction)

CS(=O)(=O)c1ccc(C=O)cc1 | 0.000724

---

Settings: in ethanol, 313.15 K
observation type: solubility (mole fraction)

CS(=O)(=O)c1ccc(C=O)cc1 | 0.00284

---

Conditions: in acetonitrile, 295.65 K
observation type: solubility (mole fraction)

CS(=O)(=O)c1ccc(C=O)cc1 | 0.0101

---

Conditions: in n-butanol, 313.15 K
observation type: solubility (mole fraction)

CS(=O)(=O)c1ccc(C=O)cc1 | 0.00211

---

Conditions: in toluene, 288.15 K
observation type: solubility (mole fraction)

CS(=O)(=O)c1ccc(C=O)cc1 | 0.000919

---

Conditions: in n-butanol, 290.65 K
observation type: solubility (mole fraction)

CS(=O)(=O)c1ccc(C=O)cc1 | 0.000828

---

Settings: in acetic acid, 305.65 K
observation type: solubility (mole fraction)

CS(=O)(=O)c1ccc(C=O)cc1 | 0.00811

---

Conditions: in n-propanol, 303.15 K
observation type: solubility (mole fraction)

CS(=O)(=O)c1ccc(C=O)cc1 | 0.00126

---

Conditions: in acetone, 305.65 K
observation type: solubility (mole fraction)

CS(=O)(=O)c1ccc(C=O)cc1 | 0.0174

---

Conditions: in methanol, 295.65 K
observation type: solubility (mole fraction)

CS(=O)(=O)c1ccc(C=O)cc1 | 0.00325

---

Details: in methanol, 298.15 K
observation type: solubility (mole fraction)

CS(=O)(=O)c1ccc(C=O)cc1 | 0.00358

---

Conditions: in n-butanol, 303.15 K
observation type: solubility (mole fraction)

CS(=O)(=O)c1ccc(C=O)cc1 | 0.0014

---

Settings: in n-butanol, 293.15 K
observation type: solubility (mole fraction)

CS(=O)(=O)c1ccc(C=O)cc1 | 0.000923

---

Details: in methanol, 315.65 K
observation type: solubility (mole fraction)

CS(=O)(=O)c1ccc(C=O)cc1 | 0.00678

---

Settings: in n-propanol, 283.15 K
observation type: solubility (mole fraction)

CS(=O)(=O)c1ccc(C=O)cc1 | 0.000541

---

Conditions: in toluene, 283.15 K
observation type: solubility (mole fraction)

CS(=O)(=O)c1ccc(C=O)cc1 | 0.000746

---

Settings: in ethanol, 290.65 K
observation type: solubility (mole fraction)

CS(=O)(=O)c1ccc(C=O)cc1 | 0.00117
